Test: NCI Yeast Anticancer Drug Screen. Data for the sgs1 mgt1 strain (AID 161);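 further: 0% = growth of cultures given vehicle only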
Settings: S. cerevisiae sgs1 mgt1 strain, at 50.0 µM, stronger effect = higher value
About 79,000 compounds went through this panel and 15% of them were active in at least one assay; those are over-represented in the sample as a whole.
property-label: growth inhibition (%)
Please respond with the number in % and leave the unit unwritten.

Example entries begin here.
stdin: For the compound shown here, CCCOC(=O)/C=C/C(=O)N1CC(C)N(C(=O)/C=C/C(=O)OCCC)CC1C (stereo unspecified) , give the reported growth inhibition.
stdout: 9.6

stdin: For the compound shown here, CN(C)C(=O)C1C2CCCC(CC2)C1C(=O)N(C)C (stereo unspecified) , give the reported growth inhibition.
stdout: 21.2

stdin: For the compound shown here, O=C1c2ccccc2C(=O)N1CNc1cccc(NCN2C(=O)c3ccccc3C2=O)c1 , give the reported growth inhibition.
stdout: -9.75

stdin: For the compound shown here, O=c1[nH]ncc2ccc([N+](=O)[O-])cc12 , give the reported growth inhibition.
stdout: -1.25

stdin: For the compound shown here, Cc1nnc(-c2cn(C3OC(CO)C(O)C3O)c3ncnc(N)c23)nc1C (stereo unspecified) , give the reported growth inhibition.
stdout: 1

***
stdin: For the compound shown here, C=C(CC/C=C\CO)[Si](C)(C)C , give the reported growth inhibition.
stdout: 1.05

stdin: For the compound shown here, CC[C@@]12C=CC(=S)N(CCSc3ccccc3)[C@@H]1c1c(n(S(=O)(=O)c3ccc(OC)cc3)c3ccccc13)CC2 , give the reported growth inhibition.
stdout: 0.95

stdin: For the compound shown here, Cc1cc(C)c[n+](-c2nc3c([O-])n(C)c(=O)n(C)c-3n2)c1 , give the reported growth inhibition.
stdout: -17.8

stdin: For the compound shown here, COc1cccc(Oc2c(O)c3ccc(OC)cc3oc2=O)c1 , give the reported growth inhibition.
stdout: -2.1

stdin: For the compound shown here, COC(=O)CC[N+]1=CCC(c2ccccc2)(c2ccccc2)O1 , give the reported growth inhibition.
stdout: -20.8

stdin: For the compound shown here, Nc1ccc2ccc3ccccc3c2c1 , give the reported growth inhibition.
stdout: 43.4

Data origin, for the record: PubChem BioAssay (NCI)
